Would you mind telling me the reported ratio to parent of each entry?
B1: FLAG-tagged KIR2DL2, full-length, wild type, on 293T cells [human] / HLA-C*03:04-GL9 tetramer (phycoerythrin-conjugated) [modified: biotin (enzymatically, with biotin ligase)] [human] (parent complex)
chain 1: HEGVHRKPSLLAHPGRLVKSEETVILQCWSDVRFEHFLLHREGKFKDTLHLIGEHHDGVSKANFSIGPMMQDLAGTYRCYGSVTHSPYQLSAPSDPLDIVITGLYEKPSLSAQPGPTVLAGESVTLSCSSRSSYDMYHLSREGEAHECRFSAGPKVNGTFQADFPLGPATHGGTYRCFGSFRDSPYEWSNSSDPLLVSVIGNPSNSWPSPTEPSSKTGNPRHLHILIGTSVVIILFILLFFLLHRWCSNKKNAAVMDQESAGNRTANSEDSDEQDPQEVTYTQLNHCVFTQRKITRPSQRPKTPPTDIIVYAELPNAESRSKVVSCP
chain 2: not shown
chain 3: not shown
chain 4: GAVDPLLAL

- Variants of: B1
- method-notes: flow cytometry, HLA tetramer staining of transfected 293T cells; percentage tetramer+ normalised to percentage FLAG+; read off a plot

State the recorded ratio to parent for this entry: chain 1 L104A ~0.02

State the recorded ratio to parent for this entry: chain 1 S132A ~1

State the recorded ratio to parent for this entry: chain 1 E106A ~0.93

State the recorded ratio to parent for this entry: chain 1 Y105A ~0.01

State the recorded ratio to parent for this entry: chain 1 F45A ~0.03

State the recorded ratio to parent for this entry: chain 1 M70A ~1

State the recorded ratio to parent for this entry: chain 1 S133A ~0.17

State the recorded ratio to parent for this entry: chain 1 E21A ~0.88

State the recorded ratio to parent for this entry: chain 1 K44A ~0.95

State the recorded ratio to parent for this entry: chain 1 D72A ~1.1

State the recorded ratio to parent for this entry: chain 1 D135A ~0.03

State the recorded ratio to parent for this entry: chain 1 D183A ~0.02
